Entry source: patent US6818741B2

# System: E2-stimulated growth of immature mouse uterus
# experiment.summary: Immature mouse uterine growth assay (anti-estrotrophic activity)
# Assay type: in vivo
# condition.context: i.p., dose-response
Square brackets hold non-standard residues; d marks the D form. Ends that are not written are not given here. Hyp = O=C(O)[C@@H]1C[C@@H](O)CN1
quantity: dose of maximal (optimal) inhibition of estrogen-stimulated growth of mouse uterus (μg/mouse)
Your answer is read as μg/mouse, so omit the unit and give the number.

Which dose of maximal (optimal) inhibition of estrogen-stimulated growth of mouse uterus is reported for this sequence? EMTOVNOG (EMT[Hyp]VN[Hyp]G) [SEQ ID NO: 4: EMTOVNOG, linear octapeptide where O is hydroxyproline (4-hydroxyproline for both prolines)] 1

What value of dose of maximal (optimal) inhibition of estrogen-stimulated growth of mouse uterus has been recorded for this entry: EMTPVNPGQ [SEQ ID NO: 7: EMTPVNPGQ, linear nonapeptide, glutamine residue added to the C-terminus of the native octapeptide] 1

Could you tell me which dose of maximal (optimal) inhibition of estrogen-stimulated growth of mouse uterus is on file for QMTPVNPG [SEQ ID NO: 2: QMTPVNPG, linear octapeptide analog of the AFP octapeptide, N-terminal glutamic acid substituted with glutamine] ? 1
